# system_tested: GCN2 (Homo sapiens (Human))
# Sequence (Q9P2K8 whole entry): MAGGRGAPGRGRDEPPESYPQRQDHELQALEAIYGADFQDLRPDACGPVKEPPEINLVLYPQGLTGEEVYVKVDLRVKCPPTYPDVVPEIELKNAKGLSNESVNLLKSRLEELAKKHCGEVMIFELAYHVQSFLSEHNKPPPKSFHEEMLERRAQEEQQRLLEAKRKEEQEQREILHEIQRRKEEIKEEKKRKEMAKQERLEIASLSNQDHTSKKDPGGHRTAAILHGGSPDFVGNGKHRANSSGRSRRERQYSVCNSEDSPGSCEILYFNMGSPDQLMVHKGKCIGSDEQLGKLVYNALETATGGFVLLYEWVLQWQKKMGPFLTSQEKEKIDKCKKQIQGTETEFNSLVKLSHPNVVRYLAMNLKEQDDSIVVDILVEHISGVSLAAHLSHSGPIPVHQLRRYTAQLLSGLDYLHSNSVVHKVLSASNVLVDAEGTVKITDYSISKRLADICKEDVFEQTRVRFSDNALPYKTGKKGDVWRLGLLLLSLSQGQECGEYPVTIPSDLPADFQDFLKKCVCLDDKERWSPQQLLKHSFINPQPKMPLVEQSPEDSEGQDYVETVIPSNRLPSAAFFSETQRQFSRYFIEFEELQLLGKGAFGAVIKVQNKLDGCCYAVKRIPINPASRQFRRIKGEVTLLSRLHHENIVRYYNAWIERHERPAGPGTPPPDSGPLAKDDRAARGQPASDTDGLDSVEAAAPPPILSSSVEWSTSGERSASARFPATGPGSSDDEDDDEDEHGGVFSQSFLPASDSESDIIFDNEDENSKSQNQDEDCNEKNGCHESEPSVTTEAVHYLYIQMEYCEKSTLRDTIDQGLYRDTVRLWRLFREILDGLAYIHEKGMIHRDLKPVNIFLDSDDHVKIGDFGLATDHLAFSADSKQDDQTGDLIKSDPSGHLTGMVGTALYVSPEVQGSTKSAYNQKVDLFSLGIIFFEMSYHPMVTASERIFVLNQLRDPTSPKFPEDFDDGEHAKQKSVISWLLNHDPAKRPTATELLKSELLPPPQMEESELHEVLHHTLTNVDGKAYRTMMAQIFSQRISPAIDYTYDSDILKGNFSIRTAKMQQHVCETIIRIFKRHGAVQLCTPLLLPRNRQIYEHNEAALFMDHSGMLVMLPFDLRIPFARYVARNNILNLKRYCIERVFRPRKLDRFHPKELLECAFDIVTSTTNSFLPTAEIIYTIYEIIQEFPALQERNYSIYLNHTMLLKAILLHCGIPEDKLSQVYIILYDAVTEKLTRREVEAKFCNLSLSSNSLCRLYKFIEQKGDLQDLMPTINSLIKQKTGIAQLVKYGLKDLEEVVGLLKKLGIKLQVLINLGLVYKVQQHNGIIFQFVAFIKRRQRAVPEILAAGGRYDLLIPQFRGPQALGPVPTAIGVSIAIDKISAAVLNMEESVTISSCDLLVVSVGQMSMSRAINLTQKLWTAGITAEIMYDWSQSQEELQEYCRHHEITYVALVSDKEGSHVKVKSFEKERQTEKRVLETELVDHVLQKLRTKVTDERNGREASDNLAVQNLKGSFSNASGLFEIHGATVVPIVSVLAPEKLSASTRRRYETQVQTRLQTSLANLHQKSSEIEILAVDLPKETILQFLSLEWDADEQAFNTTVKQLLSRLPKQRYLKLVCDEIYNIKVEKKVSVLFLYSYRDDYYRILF
# test: TR-FRET biochemical assay for inhibition of GCN2
Structures can show the parent of a compound that is named as a salt.
quantity_name: IC50

Look over these answered cases.
INSERT INTO measurements (compound, system_tested, recorded_value) VALUES
  ('CNC(=O)c1ncn2c1CO[C@H](c1c(F)ccc(NS(=O)(=O)c3cc(Cl)cnc3OC)c1F)C2 [Compound 154-2, hydrochloride]', 'GCN2 (Homo sapiens (Human))', '50 to 500 nM'),
  ('CNC(=O)c1ncn2c(F)c(-c3c(F)ccc(NS(=O)(=O)c4cc(F)cnc4C)c3F)ncc12 [Compound 184]', 'GCN2 (Homo sapiens (Human))', '50 to 500 nM'),
  ('CNC(=O)c1ncn2c1CO[C@@H](c1c(F)ccc(NS(=O)(=O)c3cc(Cl)cnc3OC)c1F)C2 [Compound 154-1]', 'GCN2 (Homo sapiens (Human))', '50 to 500 nM');

Consider the additional compound presented here.
Give IC50 (GCN2 (Homo sapiens (Human))) of the following compound: CNC(=O)c1ncn2c1CC[C@@H](c1c(F)ccc(NS(=O)(=O)c3cc(Cl)cnc3OC)c1F)C2 [Compound 27-2] 50 to 500 nM
